Catalogue of compounds with associated log10 of EC50
Target: UniProt:Q15722
Assay: BLT-1 cAMP Assay
Assay type: cell-based
Details: antagonist mode; HEK293 cells recombinantly expressing human BLT1 receptor; forskolin 4 μM and LTB4 2 nM; cAMP detection
READOUT_TYPE: log10 of EC50 (log10 of the value in nM)

>>> observed_value("CC1(S(=O)(=O)NC(=O)c2ccccc2-c2ccc3c(c2)OC[C@H](Cc2ccccn2)[C@H]3O)CC1 (single isomer, unassigned) [Example 8]")
1.34
>>> observed_value("CC1(S(=O)(=O)NC(=O)c2ccccc2-c2ccc3c(c2)OCC(Cc2coc(-c4ccccc4)n2)C3O)CC1 (racemic) [Example 46]")
1.18
>>> observed_value("O=C(NS(=O)(=O)C1CC1)c1ccc(F)cc1-c1ccc2c(c1)OC[C@@H](Cc1ccccn1)[C@@H]2O (single isomer, unassigned) [Example 15]")
2.68
>>> observed_value("O=C(NS(=O)(=O)C(F)(F)F)c1ccc(F)cc1-c1ccc2c(c1)OC[C@H](Cc1ccccn1)[C@H]2O (single isomer, unassigned) [Example 2]")
0.78
>>> observed_value("CC(C)(C)S(=O)(=O)NC(=O)c1ccccc1-c1ccc2c(c1)OC[C@H](Cc1ccccn1)[C@H]2O (single isomer, unassigned) [Example 12]")
1.23
>>> observed_value("CC1(S(=O)(=O)NC(=O)c2ccccc2-c2ccc3c(c2)OC[C@H](Cc2cscn2)[C@H]3O)CC1 (single isomer, unassigned) [Example 27]")
1.41
>>> observed_value("CC1(S(=O)(=O)NC(=O)c2ccc(F)cc2-c2ccc3c(c2)OC[C@@H](Cc2ccccn2)[C@@H]3O)CC1 (single isomer, unassigned) [Example 10]")
2.94
>>> observed_value("CC(C)CS(=O)(=O)NC(=O)c1ccccc1-c1ccc2c(c1)OCC(Cc1ccccn1)C2O (stereo not drawn) [Example 17]")
1.38
>>> observed_value("CS(=O)(=O)NC(=O)c1ccc(F)cc1-c1ccc2c(c1)OC[C@@H](Cc1ccccn1)[C@@H]2O (single isomer, unassigned) [Example 3]")
3.24
>>> observed_value("O=C(NS(=O)(=O)C1CC1)c1ccccc1-c1ccc2c(c1)OC[C@H](Cc1ccccn1)[C@H]2O (single isomer, unassigned) [Example 6]")
1.45
>>> observed_value("CC(C)(C)S(=O)(=O)NC(=O)c1ccccc1-c1ccc2c(c1)OC[C@@H](Cc1ccccn1)[C@@H]2O (single isomer, unassigned) [Example 11]")
2.16
>>> observed_value("Cn1nccc1C[C@@H]1COc2cc(-c3ccccc3C(=O)NS(=O)(=O)C3(C)CC3)ccc2[C@H]1O (racemic) [Example 28]")
2.56

----------
Target: human BLT1 receptor (Homo sapiens (Human))
Sequence (Q15722 whole entry): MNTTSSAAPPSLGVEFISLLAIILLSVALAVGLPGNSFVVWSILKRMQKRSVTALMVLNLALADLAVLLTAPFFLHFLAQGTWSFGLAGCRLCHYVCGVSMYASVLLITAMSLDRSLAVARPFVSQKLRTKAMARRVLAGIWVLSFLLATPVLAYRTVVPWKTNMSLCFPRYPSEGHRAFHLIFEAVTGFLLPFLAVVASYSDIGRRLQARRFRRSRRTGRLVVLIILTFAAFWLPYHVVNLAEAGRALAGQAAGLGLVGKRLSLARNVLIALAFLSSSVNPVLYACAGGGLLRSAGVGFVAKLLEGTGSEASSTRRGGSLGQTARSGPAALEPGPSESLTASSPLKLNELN
Assay: BLT-1 cAMP Assay
Type: cell-based
Conditions: antagonist mode; HEK293 cells recombinantly expressing human BLT1 receptor; forskolin 4 μM and LTB4 2 nM; cAMP detection
// reported EC50 per item
READOUT_TYPE: EC50 (nM)

>>> observed_value("CCn1nccc1C[C@H]1COc2cc(-c3ccccc3C(=O)NS(=O)(=O)C(C)(C)C)ccc2[C@@H]1O (single isomer, unassigned)")
36
>>> observed_value("O=C(NS(=O)(=O)C(F)(F)F)c1ccc(F)cc1-c1ccc2c(c1)OC[C@@H](Cc1ccc(-c3ccccc3)cc1)[C@@H]2O (single isomer, unassigned)")
11
>>> observed_value("CC(C)(C)S(=O)(=O)NC(=O)c1ccccc1-c1ccc2c(c1)OC[C@@H](Cc1cscn1)[C@@H]2O (racemic) [Example 32]")
11
>>> observed_value("CC(C)(C)S(=O)(=O)NC(=O)c1ccccc1-c1ccc2c(c1)OC[C@H](Cc1cscn1)[C@H]2O (single isomer, unassigned)")
9
>>> observed_value("O=C(NS(=O)(=O)C1CC1)c1ccccc1-c1ccc2c(c1)OC[C@H](Cc1ccccc1)[C@H]2O (single isomer, unassigned)")
17
